target: T1, mouse programmed cell death protein 1 Fc fusion protein (mPD-1-Fc), mPD-1 C60S (aa 25-167) (Mus musculus, UniProt Q02242, stabilised); assay: SPR; Carterra LSA; Fab from the ammonium sulfate precipitate of the culture supernatant immobilised on a NiHC200M chip; hPD-1 (1-1024 nM) or mPD-1-Fc (4-1024 nM) as analyte, fourfold dilution series, no regeneration; HBS-EP pH 7.4, 25 °C; medians over the spots of a construct, KD = koff/kon; conditions: one partner purified
T1 construct: not cleaved; source: Expi293F, purified (Protein A, SEC; dimeric fraction); not shown: Fc (human), C-terminal, kept
We begin with a simple list: items and their reported koff.

{"columns": ["binder", "koff"],
 "data": [
  ["toripalimab Fab L.V99M (Fab, V domains shown, as the heavy chain of Sm3; light chain of Sm3 with this change; numbers count from the chain's first residue; source: Brevibacillus, culture supernatant (ammonium sulfate precipitate); not shown: 6xHis, C-terminal, kept; 6xHN, C-terminal, kept) VH: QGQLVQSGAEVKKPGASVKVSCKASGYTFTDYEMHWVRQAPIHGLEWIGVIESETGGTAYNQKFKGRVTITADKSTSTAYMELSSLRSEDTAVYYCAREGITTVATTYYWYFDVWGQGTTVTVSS VL: DVVMTQSPLSLPVTLGQPASISCRSSQSIVHSNGNTYLEWYLQKPGQSPQLLIYKVSNRFSGVPDRFSGSGSGTDFTLKISRVEAEDVGVYYCFQGSHMPLTFGQGTKLEIK", "0.00702 s⁻¹"],
  ["toripalimab Fab L.L101A (Fab, V domains shown, as the heavy chain of Sm3; light chain of Sm3 with this change; numbers count from the chain's first residue; source: Brevibacillus, culture supernatant (ammonium sulfate precipitate); not shown: 6xHis, C-terminal, kept; 6xHN, C-terminal, kept) VH: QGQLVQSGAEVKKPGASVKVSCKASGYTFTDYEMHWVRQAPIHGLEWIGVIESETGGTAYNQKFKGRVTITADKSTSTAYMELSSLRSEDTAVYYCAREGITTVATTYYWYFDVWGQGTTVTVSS VL: DVVMTQSPLSLPVTLGQPASISCRSSQSIVHSNGNTYLEWYLQKPGQSPQLLIYKVSNRFSGVPDRFSGSGSGTDFTLKISRVEAEDVGVYYCFQGSHVPATFGQGTKLEIK", "0.000225 s⁻¹"],
  ["toripalimab Fab L.F60A (Fab, V domains shown, as the heavy chain of Sm3; light chain of Sm3 with this change; numbers count from the chain's first residue; source: Brevibacillus, culture supernatant (ammonium sulfate precipitate); not shown: 6xHis, C-terminal, kept; 6xHN, C-terminal, kept) VH: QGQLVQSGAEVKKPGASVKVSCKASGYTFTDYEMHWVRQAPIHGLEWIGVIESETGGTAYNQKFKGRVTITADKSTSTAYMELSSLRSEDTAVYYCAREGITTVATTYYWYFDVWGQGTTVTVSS VL: DVVMTQSPLSLPVTLGQPASISCRSSQSIVHSNGNTYLEWYLQKPGQSPQLLIYKVSNRASGVPDRFSGSGSGTDFTLKISRVEAEDVGVYYCFQGSHVPLTFGQGTKLEIK", "0.00605 s⁻¹"],
  ["toripalimab Fab L.L101S (Fab, V domains shown, as the heavy chain of Sm3; light chain of Sm3 with this change; numbers count from the chain's first residue; source: Brevibacillus, culture supernatant (ammonium sulfate precipitate); not shown: 6xHis, C-terminal, kept; 6xHN, C-terminal, kept) VH: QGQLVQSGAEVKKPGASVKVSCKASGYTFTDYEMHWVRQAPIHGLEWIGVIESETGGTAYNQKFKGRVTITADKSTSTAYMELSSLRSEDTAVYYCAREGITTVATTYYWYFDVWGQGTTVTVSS VL: DVVMTQSPLSLPVTLGQPASISCRSSQSIVHSNGNTYLEWYLQKPGQSPQLLIYKVSNRFSGVPDRFSGSGSGTDFTLKISRVEAEDVGVYYCFQGSHVPSTFGQGTKLEIK", "0.000659 s⁻¹"],
  ["toripalimab Fab L.S57A (Fab, V domains shown, as the heavy chain of Sm3; light chain of Sm3 with this change; numbers count from the chain's first residue; source: Brevibacillus, culture supernatant (ammonium sulfate precipitate); not shown: 6xHis, C-terminal, kept; 6xHN, C-terminal, kept) VH: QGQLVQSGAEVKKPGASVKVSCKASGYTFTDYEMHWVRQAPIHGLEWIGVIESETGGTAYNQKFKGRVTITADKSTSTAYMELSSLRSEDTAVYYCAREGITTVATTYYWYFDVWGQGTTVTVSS VL: DVVMTQSPLSLPVTLGQPASISCRSSQSIVHSNGNTYLEWYLQKPGQSPQLLIYKVANRFSGVPDRFSGSGSGTDFTLKISRVEAEDVGVYYCFQGSHVPLTFGQGTKLEIK", "0.00805 s⁻¹"]
]}
